Recorded values, source patent US10335409B2.

# Tested on: genotype 1b NS3/4a protease inhibitor resistant variant D168A transient HCV replicon in Huh-7-derived cells
# Test details: Transient-transfected HCV replicon EC50, genotype 1b D168A
# Type: cell-based, hepatitis C virus
# Particulars: Hepatitis C virus, 72 h, read-out: EC50 1B D168A, transient-transfected replicon genotype 1b D168A resistant variant, 72 h
EC50 strictly under 60 nM means yes (1); at 60 nM or over means no (0).

INSERT INTO assay_data (molecule, label_value) VALUES
  ('CC[C@@H]1[C@@H]2CN(C(=O)[C@H](C(C)(C)C)NC(=O)O[C@@H]3C[C@H]3CCCC3CC3c3nc4ccc(OC)cc4nc3O2)[C@@H]1C(=O)N[C@]1(C(=O)NS(=O)(=O)C2(C)CC2)C[C@H]1C(F)F (stereo partly drawn) [Example 36]', 'no (0)'),
  ('CCC[C@@H]1[C@@H]2CN(C(=O)[C@H](C(C)(C)C)NC(=O)O[C@@H]3C[C@H]3CCCCCc3nc4ccc(OC)cc4nc3O2)[C@@H]1C(=O)N[C@]1(C(=O)NS(=O)(=O)C2(C)CC2)C[C@H]1C(F)F [Example 29]', 'yes (1)'),
  ('COc1ccc2nc3c(nc2c1)O[C@H]1CN(C(=O)[C@H](C(C)(C)C)NC(=O)O[C@@]2(C)C[C@@H]2CCCCC3(F)F)[C@H](C(=O)N[C@]2(C(=O)NS(=O)(=O)C3(C)CC3)C[C@H]2C(F)F)[C@@H]1C [Example 77]', 'no (0)'),
  ('CC[C@@H]1[C@@H]2CN(C(=O)[C@H](C(C)(C)C)NC(=O)O[C@@H]3C[C@H]3CCCCCc3nc4ccc(OC)cc4nc3O2)[C@@H]1C(=O)N[C@]1(C(=O)NS(=O)(=O)C2(C)CC2)C[C@H]1CC(F)F [Example 67]', 'no (0)'),
  ('CC[C@@H]1[C@@H]2CN(C(=O)[C@H](C(C)(C)C)NC(=O)O[C@@H]3C[C@H]3CCCCC(F)(F)c3nc4ccc(OC)cc4nc3O2)[C@@H]1C(=O)N[C@]1(C(=O)NS(=O)(=O)C2(C)CC2)C[C@H]1CC(F)F [Example 35]', 'yes (1)'),
  ('CC[C@@H]1[C@@H]2CN(C(=O)[C@H](C(C)(C)C)NC(=O)O[C@]3(C)CCC[C@H]3CCCCCc3nc4ccc(OC)cc4nc3O2)[C@@H]1C(=O)N[C@]1(C(=O)NS(=O)(=O)C2(C)CC2)C[C@H]1CC(F)F [Example 41]', 'no (0)'),
  ('COc1ccc2nc3c(nc2c1)O[C@H]1CN(C(=O)[C@H](C(C)(C)C)NC(=O)O[C@@H]2CCC[C@H]2CCCCC3)[C@H](C(=O)N[C@]2(C(=O)NS(=O)(=O)C3CC3)C[C@H]2C(F)F)[C@@H]1C [Example 28]', 'yes (1)'),
  ('CC[C@@H]1[C@@H]2CN(C(=O)[C@H](C(C)(C)C)NC(=O)O[C@@H]3C[C@H]3CCCCC(F)(F)c3nc4ccc(OC(F)F)cc4nc3O2)[C@@H]1C(=O)N[C@]1(C(=O)NS(=O)(=O)C2(C)CC2)C[C@H]1C(F)F [Example 85]', 'yes (1)'),
  ('CC[C@@H]1[C@@H]2CN(C(=O)[C@H](C(C)(C)C)NC(=O)O[C@@H]3C[C@H]3CCCCCc3nc4ccc(OCC(F)(F)F)cc4nc3O2)[C@@H]1C(=O)N[C@]1(C(=O)NS(=O)(=O)C2(C)CC2)C[C@H]1C(F)F [Example 55]', 'yes (1)');
